Source: PubChem BioAssay (NCI)

# System: HOP-92 NSCLC
# EXPERIMENT NOTES: NCI-60 one-dose screen, 48 h
# CONDITION DETAILS: 10 µM
The panel holds about 83,000 compounds, 20% with a hit somewhere; the sample as a whole holds those more often. Calls of active or inactive are those of the source. Rule for the calls: active = growth percent below 10; inactive = the rest.
Choose one outcome from this list and give only that: active, inactive

INSERT INTO measurements (compound, assigned_category) VALUES
  ('BrC/C=C/C[P+](c1ccccc1)(c1ccccc1)c1ccccc1', 'inactive');

For "Cc1cc(NCCCN(C)C)c2ccc3c(ccc4c(NCCCN(C)C)cc(C)nc43)c2n1" , what call appears in the results of this test?
active

For "CCCCCCCCCCCCCCCCCN" , what call appears in the results of this test?
inactive

For CSc1ccc2c(c1)C(N1CCN(C)CC1)Cc1ccccc1S2 (stereo not given) , what call appears in the results of this test?
active

For "CN1CCN(c2ccc3nc(-c4ccc5nc(-c6ccc(O)cc6)[nH]c5c4)[nH]c3c2)CC1" , what call appears in the results of this test?
inactive

----------
# System: TK-10 renal
# EXPERIMENT NOTES: NCI-60 one-dose screen, 48 h (100 = growth as untreated, 0 = no growth, -100 = all killed)
# CONDITION DETAILS: 10 µM
The panel holds about 83,000 compounds, 20% with a hit somewhere; the sample as a whole holds those more often. Starred links: 1 amine or outer side, 2 acyl side, 3 side chain; linkers in the order of their positions; H or OH if unused. Positions of bridges follow the written chain, without caps; N, C: chain ends. Non-standard residues stand in square brackets, D forms with d. Residues, ends and D or L forms follow the SMILES beside them. Chains are numbered I, II in the order given. Actinocin(9to1) = Cc1c2oc3c(C)ccc(C(=O)[*:1])c3nc-2c(C(=O)[*:2])c(N)c1=O; aThr = C[C@H](O)[C@H](N)C(=O)O; NMeV = CN[C@H](C(=O)O)C(C)C; Sar = CNCC(=O)O
Response key: true (1) means growth >= 20%; false (0) means growth < 20%.

Some entries whose results are on file:
INSERT INTO assay_data (molecule, assigned_category) VALUES
  ('O=C(/C(=C/c1ccccc1)CBr)c1ccccc1', 'true (1)'),
  ('Cc1c2oc3c(C)ccc(C(=O)N[C@@H]4C(=O)N[C@H](C(C)C)C(=O)N5CCC[C@H]5C(=O)N(C)CC(=O)N(C)[C@@H](C(C)C)C(=O)O[C@H]4C)c3nc-2c(C(=O)N[C@@H]2C(=O)N[C@H](C(C)C)C(=O)N3CCC[C@H]3C(=O)N(C)CC(=O)N(C)[C@@H](C(C)C)C(=O)O[C@H]2C)c(N)c1=O (I: [aThr][dV]P[Sar][NMeV] / II: [aThr][dV]P[Sar][NMeV]; ester I:1-I:C, II:1-II:C; linker I:N-II:N via Actinocin(9to1))', 'false (0)'),
  ('N#C/C(=C1C=C/C(=N\O)C(Cl)=C\1)c1ccccc1', 'true (1)'),
  ('CN(C)CCC(=O)c1c[nH]c2ccccc12', 'true (1)'),
  ('Cc1cc(NCCCN(C)C)c2ccc3c(ccc4c(NCCCN(C)C)cc(C)nc43)c2n1', 'false (0)'),
  ('BrC/C=C/C[P+](c1ccccc1)(c1ccccc1)c1ccccc1', 'true (1)');

Note: attention shifts to another entry.
Exam item: decide whether the reported growth for CSc1ccc2c(c1)C(N1CCN(C)CC1)Cc1ccccc1S2 (stereo not drawn) is at least 20%.
true (1)

----------
Some compounds, each annotated with its measured growth.
# Tested on: M14 melanoma
# EXPERIMENT NOTES: NCI-60 one-dose screen, 48 h (100 = growth as untreated, 0 = no growth, -100 = all killed)
# CONDITION DETAILS: 10 µM
# Description: Growth inhibition of the M14 human tumor cell line is measured as a screen for anti-cancer activity. Cells are grown in 96 well plates and exposed to the test compound for 48 hours. Compounds are tested at a single concentration, which is 10^-5 M for most compounds. The reported endpoint is percent growth (GI% or GIPRCNT), where numbers from 0 - 100% represent growth inhibition, and numbers from -100% - 0 represent cell death. For example, a value of 40 represents 60% growth inhibition. […]
About 83,000 compounds went through this panel and 20% of them were active in at least one assay; those are over-represented in the sample as a whole. Active and inactive are the calls of the source. Rule for the calls: active = growth percent below 10; inactive = the rest.

Below: 6 compounds and their reported growth.
INSERT INTO results (smiles_repr, recorded_measurement) VALUES
  ('CCCCCCCCCCCCCCCCCN', '104% (inactive)'),
  ('COc1cc(C(C)(C)C)cc(OC)c1C(O)(c1c(OC)cc(C(C)(C)C)cc1OC)c1c(OC)cc(C(C)(C)C)cc1OC', '-94.6% (active)'),
  ('Cc1cnc(/C=N\NC(N)=S)c2cccc(N)c12', '-24.7% (active)'),
  ('Cc1cc(NCCCN(C)C)c2ccc3c(ccc4c(NCCCN(C)C)cc(C)nc43)c2n1', '-82.9% (active)'),
  ('CN(C)CCC(=O)c1c[nH]c2ccccc12', '101% (inactive)'),
  ('Nc1ccc2cc(Br)c3ccccc3c2c1', '78.5% (inactive)');

Fill blank: measured growth of the compound "N#C/C(=C1C=C/C(=N\O)C(Cl)=C\1)c1ccccc1" is ____.
46% (inactive)

Fill blank: measured growth of the compound "O=C(/C(=C/c1ccccc1)CBr)c1ccccc1" is ____.
65.8% (inactive)

----------
# System: HCT-116 colon
# EXPERIMENT NOTES: NCI-60 one-dose screen, 48 h (100 = growth as untreated, 0 = no growth, -100 = all killed)
# CONDITION DETAILS: 10 µM
About 83,000 compounds went through this panel and 20% of them were active in at least one assay; those are over-represented in the sample as a whole. Starred links: 1 amine or outer side, 2 acyl side, 3 side chain; linkers in the order of their positions; H or OH if unused. Positions of bridges follow the written chain, without caps; N, C: chain ends. Non-standard residues stand in square brackets, D forms with d. Residues, ends and D or L forms follow the SMILES beside them. Chains are numbered I, II in the order given. Actinocin(9to1) = Cc1c2oc3c(C)ccc(C(=O)[*:1])c3nc-2c(C(=O)[*:2])c(N)c1=O; aThr = C[C@H](O)[C@H](N)C(=O)O; NMeV = CN[C@H](C(=O)O)C(C)C; Sar = CNCC(=O)O
Some compounds, each annotated with its measured growth.
Note: unit % is implicit; provide only the numeric part.

Below: 5 compounds and their reported growth.
INSERT INTO results (compound, parameter, unit_descriptor, recorded_measurement) VALUES
  ('N#C/C(=C1C=C/C(=N\O)C(Cl)=C\1)c1ccccc1', 'growth', '%', 5.69),
  ('CSc1ccc2c(c1)C(N1CCN(C)CC1)Cc1ccccc1S2 (stereo unspecified)', 'growth', '%', 29.3),
  ('BrC/C=C/C[P+](c1ccccc1)(c1ccccc1)c1ccccc1', 'growth', '%', 14.8),
  ('S=c1[nH]nc(Cc2ccccc2)c(=S)[nH]1', 'growth', '%', 100),
  ('Cc1c2oc3c(C)ccc(C(=O)N[C@@H]4C(=O)N[C@H](C(C)C)C(=O)N5CCC[C@H]5C(=O)N(C)CC(=O)N(C)[C@@H](C(C)C)C(=O)O[C@H]4C)c3nc-2c(C(=O)N[C@@H]2C(=O)N[C@H](C(C)C)C(=O)N3CCC[C@H]3C(=O)N(C)CC(=O)N(C)[C@@H](C(C)C)C(=O)O[C@H]2C)c(N)c1=O (I: [aThr][dV]P[Sar][NMeV] / II: [aThr][dV]P[Sar][NMeV]; ester I:1-I:C, II:1-II:C; linker I:N-II:N via Actinocin(9to1))', 'growth', '%', -29.5);

Now consider a different compound.
Fill blank: measured growth of the compound "Nc1ccc2cc(Br)c3ccccc3c2c1" is ____.
71.1

----------
Some molecules, each annotated with its measured growth.
# System: BT-549 breast
# EXPERIMENT NOTES: NCI-60 one-dose screen, 48 h (100 = growth as untreated, 0 = no growth, -100 = all killed)
# CONDITION DETAILS: 10 µM
About 83,000 compounds went through this panel and 20% of them were active in at least one assay; those are over-represented in the sample as a whole.
Note: unit % is implicit; provide only the numeric part.

Below: 3 molecules and their reported growth.
INSERT INTO assay_data (smiles_repr, recorded_measurement) VALUES
  ('Cc1cc(NCCCN(C)C)c2ccc3c(ccc4c(NCCCN(C)C)cc(C)nc43)c2n1', -91.4),
  ('S=c1[nH]nc(Cc2ccccc2)c(=S)[nH]1', 109),
  ('O=C(/C(=C/c1ccccc1)CBr)c1ccccc1', 112);

Now consider a different molecule.
Fill blank: measured growth of the molecule "BrC/C=C/C[P+](c1ccccc1)(c1ccccc1)c1ccccc1" is ____.
57.1
